# Test Protocol: NCI Yeast Anticancer Drug Screen. Data for the mec2-1 strain (AID 157)
# Study Conditions: S. cerevisiae mec2-1 strain, at 50.0 µM, active compounds read high
About 79,000 compounds went through this panel and 15% of them were active in at least one assay; those are over-represented in the sample as a whole.
Attribute Measured: growth inhibition (%)
Express it in %; write the number only.

Fc1ccc(N=C2c3ccccc3-c3ccccc32)cc1: -1.9
CCOC(=O)C1C=C1C(C)(C)O (stereo not given): 9.3
CNC(=O)N(Cl)c1ccc(Cl)cc1: 12.9

Measured growth inhibition, COc1ccc2c(c1)-c1cc(OC)ccc1C2c1ccccc1 : -9.15

Measured growth inhibition, Cc1cc(C)c(CSc2cc(N)nc(N)c2N)c(C)c1 : 9.3

----------
# Test Protocol: NCI Yeast Anticancer Drug Screen. Data for the rad50 strain (AID 155);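 note: 0% = growth of vehicle-only cultures of the same strain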
# Study Conditions: S. cerevisiae rad50 strain growth inhibition; at 50.0 µM; active compounds read high
Compounds without any hit were thinned out: in the full panel of roughly 79,000, 15% have a hit.
Attribute Measured: growth inhibition (%)
Express it in %; write the number only.

Oc1ccc2ccccc2c1/C=N\Sc1ccc(Cl)cc1: 49

Measured growth inhibition, N#CCCc1ccc[nH]1 : -15.8

Measured growth inhibition, COc1ccc(/C=C2\N=C(c3ccc([N+](=O)[O-])cc3)OC2=O)cc1Br : 29.9

Measured growth inhibition, CCNC(=S)N/N=C/c1cc(OC)ccc1O : -11.7

Measured growth inhibition, CC(=S)N=Cc1c(C)[nH]n(-c2ccccc2)c1=O : -49.4

Measured growth inhibition, CC(=O)/C(N=Nc1ccccc1SCCC#N)=C(\C)O : 12.2

Measured growth inhibition, CCCCCCCCCCCC(=O)OCC1OC(n2cc(F)c(=O)[nH]c2=O)C(N)C(OC(=O)CCCCCCCCCCC)C1O (configuration not stated) : -9

Measured growth inhibition, CC1=C(C(=O)Nc2ccc(Cl)c(C(=O)OC(C)C)c2)SCCO1 : 44.9

Measured growth inhibition, CSc1nc(N)c(C(N)=O)cc1C#N : 5.45

Measured growth inhibition, CCOC(=O)c1ccc(NC(=O)Oc2cc(C)c(Cl)c(C)c2)cc1 : 7.8

Measured growth inhibition, O=C1CC23CC(=O)CC2(C1)c1ccccc1C3=O (configuration not stated) : 11.1

Measured growth inhibition, CC(I)CNc1ccc(C(=O)O)c(O)c1 (configuration not stated) : 3.7

----------
# Test Protocol: NCI Yeast Anticancer Drug Screen. Data for the mec2-1 strain (AID 157)
# Study Conditions: S. cerevisiae mec2-1 strain, at 50.0 µM, active compounds read high
About 79,000 compounds went through this panel and 15% of them were active in at least one assay; those are over-represented in the sample as a whole.
Attribute Measured: growth inhibition (%)
Express it in %; write the number only.

CC1C=CC(O)[C@]2(CO)CC3(CCC12)OCCO3 (some centres not stated): 3.95
CC(=O)Oc1ccc(/C=C/c2ccccn2)cc1: -1.75
CN1CCC2(CC1)C(=NC1CCCCC1)NC(=O)N2c1ccccc1: -6.15
COc1cc(OC)cc(C2OC3=C(Nc4ccccc4N3)C2=O)c1 (configuration not stated): 16.1
CCCC(CNC(C)=O)(c1ccccc1)C1CCCCC1 (configuration not stated): 6.9

Alright, here's another compound for you.
Measured growth inhibition, c1ccc(-c2ccc(-c3ccccc3)c(-c3ccc4c(c3)CCC4)c2-c2ccccc2)cc1 : 13.3

----------
Below, each entry is listed alongside its reported growth inhibition.
# Test Protocol: NCI Yeast Anticancer Drug Screen. Data for the sgs1 mgt1 strain (AID 161);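 note: 0% = growth of cultures given vehicle only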
# Study Conditions: S. cerevisiae sgs1 mgt1 strain, at 50.0 µM, active compounds read high
This is part of a sample that, as a whole, favours compounds with a hit. Of some 79,000 tested, about 15% had one in any assay.
Express it in %; write the number only.

Previously resolved entries follow.
Cc1cc(N(CCC#N)CCC#N)ccc1/C=C(\NC(=O)/C=C/c1ccccc1)C(=O)N=[N+]=[N-]: -44.9
CCCCCCCCCCCCCCCCCCNc1nc(=O)n(C2CC(O)C(COP(=O)(O)O)O2)cc1F (stereo unspecified): 16.8
COc1ccc2c(N=[N+]=[N-])cc(C)nc2c1: -16.9
O=C(NC(c1ccccc1)c1cccs1)c1cccs1 (stereo unspecified): 1.05
O=C1CCCCC1N1CCCCC1 (stereo unspecified): 10.8

Alright, here's another compound for you.
Measured growth inhibition, NC(=O)SCCC(N)C(=O)O (stereo unspecified) : 3

----------
# Test Protocol: NCI Yeast Anticancer Drug Screen. Data for the cln2 rad14 strain (AID 165);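 note: 0% = growth equal to vehicle treated cultures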
# Study Conditions: S. cerevisiae cln2 rad14 strain, at 50.0 µM, active compounds read high
This is part of a sample that, as a whole, favours compounds with a hit. Of some 79,000 tested, about 15% had one in any assay.
Attribute Measured: growth inhibition (%)
Express it in %; write the number only.

Previously resolved entries follow.
NC(CCOCCP(=O)(O)CCC1C=CC=CC1)C(=O)O (centres undefined): 5.6
O=C(Nc1nc(=S)c2c(ncn2CCO)[nH]1)c1ccccc1: 12.9
O=C1OC2CC3CC2C1C3C(=O)N1CCCCC1 (centres undefined): -33
Cn1c(=O)cc2[nH]c3ccccc3n2c1=O: -5.7
CC(=O)O/C(=C\C(=O)[C@H]1CC[C@H]2[C@@H]3CC[C@@H]4C[C@H](OC(C)=O)CC[C@]4(C)[C@H]3C(=O)C[C@]12C)C(F)(F)F: 18.8
CC1c2c(cc(=O)n(C)c2O)C(=O)N1Cc1ccccc1 (centres undefined): -2.6
O=C(NC(=O)c1ccc(Cl)c(Cl)c1)Nc1ccc(Cl)cc1: -32.6
FC(F)(F)c1cccc(N=Cc2ccc(C=Nc3cccc(C(F)(F)F)c3)cc2)c1: 7.6
BrCCCOc1ccccc1Br: -32.1
Cc1ccc(S(=O)c2ccccc2[N+](=O)[O-])cc1 (centres undefined): 22

Measured growth inhibition, CCCCCCC(C)(C)NC(N)=O : 16.8

Measured growth inhibition, O=C(Oc1ccc([N+](=O)[O-])cc1)C(CSC(c1ccccc1)(c1ccccc1)c1ccccc1)N1C(=O)c2ccccc2C1=O (centres undefined) : 58.7

Measured growth inhibition, COC(=O)C(=O)C(C(=O)C(=O)Nc1cccc([N+](=O)[O-])c1)c1nc2ccc(Cl)cc2[nH]c1=O (centres undefined) : -19.1

Measured growth inhibition, CCN(CC)c1ccc(/C=N\N(C)C)cc1 : -48.1

Measured growth inhibition, O=C(O)CNC1=NCCN1 : -41.4

Measured growth inhibition, Cc1csc2c1-n1cccc1C2=O : 12.2

Measured growth inhibition, N#CC1NCNC1N (centres undefined) : 1.15

Measured growth inhibition, COc1ccc(C(=O)c2ccc(Cl)s2)cc1 : -13.2

Measured growth inhibition, O=C(N/N=C(\C1=Nc2ccc(Cl)cc2NC1O)C(O)/C=C/c1ccccc1)c1ccncc1 (centres undefined) : -20.7

Measured growth inhibition, N#CCc1ccccc1-c1ccccc1 : -45.5

Measured growth inhibition, O=C(O)CNc1ccc([N+](=O)[O-])cc1C(=O)O : 7.4

Measured growth inhibition, CCC(C)OC(=O)/C(Br)=C1/OC(=O)c2ccccc2-c2ccccc21 (centres undefined) : -13.4

Measured growth inhibition, O=C(N=Nc1c(O)[nH]c2c(Cl)cc(Cl)cc12)C(=O)Nc1cccc(C(F)(F)F)c1 : 13.8

Measured growth inhibition, O=C(O)c1cccc(F)c1C(=O)O : -20.4

Measured growth inhibition, NCCNCCCNCCN : -2.45

Measured growth inhibition, Cc1cc(C)n(/N=C/c2ccccc2)c(=O)c1C#N : -0.55

Measured growth inhibition, CC(=O)c1sc(Nc2nnc(-c3ccc(-c4nnc(Nc5nc(C)c(C(C)=O)s5)o4)cc3)o2)nc1C : 6.4

Measured growth inhibition, CC1(C)OCCS1 : 18.6

Measured growth inhibition, CC(=O)CC(=O)OC(C)OC(=O)CC(C)=O : -2.5

Measured growth inhibition, O=C1c2c(O)cccc2C(C(=O)CCCCC(=O)C2c3cccc(O)c3C(=O)c3c(O)cccc32)c2cccc(O)c21 : 17.1

----------
# Test Protocol: NCI Yeast Anticancer Drug Screen. Data for the sgs1 mgt1 strain (AID 161);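 note: 0% = growth of cultures given vehicle only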
# Study Conditions: S. cerevisiae sgs1 mgt1 strain, at 50.0 µM, active compounds read high
Compounds without any hit were thinned out: in the full panel of roughly 79,000, 15% have a hit.
Attribute Measured: growth inhibition (%)
Express it in %; write the number only.

CCCCNC1(N(C)C)N=C(N(C)C)N=C(N(C)C)O1 (stereo not drawn): -1.05

Measured growth inhibition, CCCNC(=O)c1ccc(Cl)cc1Cl : 18.4

Measured growth inhibition, CN(C)c1nc2oc(-c3ccccc3)c(-c3ccccc3)c2c2nnnn12 : 2.65

Measured growth inhibition, COc1ccc(C(=O)OCc2ccccc2CN2CCOCC2)cc1 : -8.45

Measured growth inhibition, CC(=O)ON=C(C1CC1)C1CC1 : -6.4

Measured growth inhibition, NC(=O)N/N=C\CC(O)(C(F)(F)Cl)C(F)(F)Cl : -15.6

Measured growth inhibition, CN(C)CC1=C(O)c2ccccc2C(=O)C1=O : 1.1

Measured growth inhibition, CNCCS(=O)(=O)O : 1.7

Measured growth inhibition, O=C(O)CSSCC(=O)O : -18.8

Measured growth inhibition, O=C(O)/C=C/c1ccccc1Br : 12.7

Measured growth inhibition, N[C@@H]1c2c(csc2Br)C(=O)[C@@H]1O : 13.3

Measured growth inhibition, CC/C(=N/Nc1cn[nH]c(=O)c1Cl)c1ccccc1 : -0.5

Measured growth inhibition, CC(=O)NNc1nc(C)c(C(/C=C/c2ccc(Cl)cc2)=N\NS(=O)(=O)c2ccc(C)cc2)s1 : 19.6
